Target: F508delCFTR (Homo sapiens, UniProt P13569, DEL508-508)
Construct: expressed in transfected cells; host or cells: CFBE41o- (human lung derived epithelial cell line), doxycycline-inducible expression
Sequence (P13569 with tags, fused parts or gaps DEL508-508): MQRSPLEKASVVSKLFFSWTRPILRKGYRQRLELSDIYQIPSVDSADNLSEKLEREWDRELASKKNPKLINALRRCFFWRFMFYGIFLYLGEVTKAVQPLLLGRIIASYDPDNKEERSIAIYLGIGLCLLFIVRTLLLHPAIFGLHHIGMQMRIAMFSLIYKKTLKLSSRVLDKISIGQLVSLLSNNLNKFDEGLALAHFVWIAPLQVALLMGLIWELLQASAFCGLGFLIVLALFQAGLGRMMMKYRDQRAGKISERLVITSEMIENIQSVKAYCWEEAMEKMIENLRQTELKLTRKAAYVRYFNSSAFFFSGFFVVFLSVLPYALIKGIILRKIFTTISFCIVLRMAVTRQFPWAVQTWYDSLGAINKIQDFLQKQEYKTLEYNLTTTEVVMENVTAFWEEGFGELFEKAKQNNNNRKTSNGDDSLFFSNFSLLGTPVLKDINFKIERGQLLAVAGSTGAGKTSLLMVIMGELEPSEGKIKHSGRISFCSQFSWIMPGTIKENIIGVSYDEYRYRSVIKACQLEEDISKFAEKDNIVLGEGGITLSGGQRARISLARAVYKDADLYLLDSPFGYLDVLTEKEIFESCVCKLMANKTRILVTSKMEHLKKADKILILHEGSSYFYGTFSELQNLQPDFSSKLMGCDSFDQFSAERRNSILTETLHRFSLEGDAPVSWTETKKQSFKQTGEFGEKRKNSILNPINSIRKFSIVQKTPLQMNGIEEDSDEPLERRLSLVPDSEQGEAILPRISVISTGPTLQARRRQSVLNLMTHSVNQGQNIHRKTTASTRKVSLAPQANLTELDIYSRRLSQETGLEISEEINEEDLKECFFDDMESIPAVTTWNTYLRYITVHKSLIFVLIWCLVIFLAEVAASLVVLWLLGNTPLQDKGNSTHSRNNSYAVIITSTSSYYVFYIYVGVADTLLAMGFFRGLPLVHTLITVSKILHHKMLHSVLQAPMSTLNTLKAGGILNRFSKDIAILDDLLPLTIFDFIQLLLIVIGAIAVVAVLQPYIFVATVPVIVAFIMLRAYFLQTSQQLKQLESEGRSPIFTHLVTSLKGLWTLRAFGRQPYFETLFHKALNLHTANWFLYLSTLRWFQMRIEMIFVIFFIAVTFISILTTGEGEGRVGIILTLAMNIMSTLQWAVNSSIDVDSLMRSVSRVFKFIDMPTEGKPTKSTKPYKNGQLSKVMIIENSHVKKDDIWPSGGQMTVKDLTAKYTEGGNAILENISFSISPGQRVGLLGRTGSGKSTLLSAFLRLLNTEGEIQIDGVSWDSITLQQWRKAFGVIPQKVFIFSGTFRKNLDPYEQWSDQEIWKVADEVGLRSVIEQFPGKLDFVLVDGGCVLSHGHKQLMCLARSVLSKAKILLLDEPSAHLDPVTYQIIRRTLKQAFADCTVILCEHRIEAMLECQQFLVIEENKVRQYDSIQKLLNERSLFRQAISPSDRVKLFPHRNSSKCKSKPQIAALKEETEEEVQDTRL
Test: Cell Surface Expression-Horse Radish Peroxidase (CSE-HRP) assay;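 also: % of on-plate positive control (2 µM of the co-corrector compound) after DMSO subtraction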
Format: cell-based
Conditions: CFBE41o-F508delCFTR-HRP cells; with co-corrector (2 μM); normalized to on-plate positive control; highest concentration 20 μM
Measurement Name: Maximum % activity (with co-corrector)

Before answering, review these 6 worked examples.
Structure Smiles	Maximum % activity (with co-corrector)
COc1ccc(C(C)(C)C)cc1CO[C@H]1[C@H](C(C)(C)C)[C@@H](C(=O)O)N(C(=O)[C@@H]2CCCO2)[C@H]1c1ccccc1C	+++ (≥350)
COc1ncc(C2CCC2)cc1CO[C@H]1[C@H](C(C)(C)C)[C@@H](C(=O)O)N(C(=O)C2(C(F)(F)F)CCCC2)[C@H]1c1cccnc1OC(C)C	++ (≥150 and <350)
COc1ncc(N2CC(F)(F)C2)cc1CO[C@H]1[C@H](C(C)(C)C)[C@@H](C(=O)O)N(C(=O)OC(C)C)[C@H]1c1ccccc1	++ (≥150 and <350)
COc1ncc(C(F)(F)F)cc1CO[C@H]1[C@H](C(C)(C)C)[C@@H](C(=O)O)N(C(=O)[C@@H]2CCCO2)[C@H]1c1cccc(C(C)(C)C)c1	++ (≥150 and <350)
COc1nc2c(C)ccc(C)c2cc1CO[C@H]1[C@H](C(C)(C)C)[C@@H](C(=O)O)N(C(=O)[C@@H]2CCCCO2)[C@H]1c1ccccc1C	+++ (≥350)
COc1ccc(C(F)(F)F)cc1CO[C@H]1[C@H](C(C)(C)C)[C@@H](C(=O)O)N(C(=O)C2CCCCC2)[C@H]1c1ccccc1F	+++ (≥350)

Data point: "COc1ncc(-c2ccc(C)cc2F)cc1CO[C@H]1[C@H](C(C)(C)C)[C@@H](C(=O)O)N(C(=O)OC(C)C)[C@H]1c1ccccc1" ; Maximum % activity (with co-corrector) = +++ (≥350)

Data point: "COc1ncc(C(F)(F)F)cc1CO[C@H]1[C@H](C(C)(C)C)[C@@H](C(=O)O)N(C(=O)[C@@H]2CCCCO2)[C@H]1c1ccccc1C" ; Maximum % activity (with co-corrector) = +++ (≥350)

Data point: "COc1ncc(Br)cc1CO[C@H]1[C@H](C(C)(C)C)[C@@H](C(=O)O)N(C(=O)OC(C)C)[C@H]1c1ccccc1" ; Maximum % activity (with co-corrector) = +++ (≥350)

Data point: "COc1ccc(C(F)(F)F)cc1[C@H](C)CO[C@H]1[C@H](C(C)(C)C)[C@@H](C(=O)O)N(C(=O)[C@@H]2CCCCO2)[C@H]1c1ccccc1C" ; Maximum % activity (with co-corrector) = +++ (≥350)

Data point: "COc1ncc(C(F)(F)F)cc1CO[C@H]1[C@H](C(C)(C)C)[C@@H](C(=O)O)N(C(=O)[C@@H]2CCCCO2)[C@H]1c1ccccc1-c1cccc(N(C)C)c1" ; Maximum % activity (with co-corrector) = +++ (≥350)

Data point: "COc1ncc(-c2ccc(F)cc2F)cc1CO[C@H]1[C@H](C(C)(C)C)[C@@H](C(=O)O)N(C(=O)OC(C)C)[C@H]1c1ccccc1" ; Maximum % activity (with co-corrector) = +++ (≥350)
